meta.source: patent US20250304677A1

Reported koff values follow for various binders
target: T1, human folate receptor alpha (hFRα), recombinant protein (human, UniProt P15328 25-233); test: BLI, Avi-biotinylated FRα on streptavidin biosensors, VHH 100 nM
T1 construct: Bought recombinant proteins (His-tagged, or biotinylated via Avi-tag, e.g. AcroBiosystems FO1-H82E2, F01-H52H1); also called hFOLR1; huFOLR1
T1 sequence (P15328 25-233 limits assumed): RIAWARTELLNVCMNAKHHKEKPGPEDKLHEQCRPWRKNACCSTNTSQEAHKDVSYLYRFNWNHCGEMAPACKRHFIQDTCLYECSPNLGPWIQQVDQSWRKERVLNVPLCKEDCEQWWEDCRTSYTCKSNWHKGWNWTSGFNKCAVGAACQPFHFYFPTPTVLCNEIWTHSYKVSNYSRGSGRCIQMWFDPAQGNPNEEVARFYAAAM
Answer with a number only, understood to be in s⁻¹.

Worked set:
Binder: P01500002 = h2 variant 2HFO42: 2HF042(Q1E, Q5V, A14P, V40A, L79Y, K83R, K105Q, Q108L)-HIS6 (VHH, Entry includes the tag) VHH: EVQLVESGGGLVQPGGSLRLSCAASGSGFSGMIMGWYRQAPGKQRELVATVTSHGTTNYADSVKGRFTISRDNAKNTVYLQMNSLRPEDTAVYYCNAHFPGIYWGQGTLVTVSS
koff (s⁻¹): 0.0132
--
Binder: P01500006: 2HF042(Q1E, Q5V, A14P, V40A, L79Y, K83R, Q108L)-FLAG3-HIS6 (VHH, Entry includes the tags; also called P0150006) VHH: EVQLVESGGGLVQPGGSLRLSCAASGSGFSGMIMGWYRQAPGKQRELVATVTSHGTTNYADSVKGRFTISRDNAKNTVYLQMNSLRPEDTAVYYCNAHFPGIYWGKGTLVTVSS
koff (s⁻¹): 0.012
--
Binder: P01500005: 2MFR67(Q1E, Q5V, Q108L)-HIS6 (VHH, Entry includes the tag; also called 2MFR67 (P01500005); P0150005) VHH: EVQLVESGGGLVQAGGSLRLSCAASGSGFSGMIMGWYRQAPGKQRELVATVTSHGTTNYADSVKGRFTISREDSKNTVLLQMNSLKPEDTAVYYCNAHFPGIYWGKGTLVTVSS
koff (s⁻¹): 0.00353

Quick one: give measured koff for P01500003: 2HF019(Q1E, Q5V, Q108L)-HIS6 (VHH, Entry includes the tag; also called 2HFO19 (P01500003); Nb19) VHH: EVQLVESGGGLVQPGGSLRVSCAASGFPFSTVYMSWVRQAPGKGLEWVSGINNDGGVIDYADSVKGRFTISRDNAKNTLYLQLNSLKPEDTALYFCARGRSFVATLSSSLRGQGTLVTVSS
0.00499
